# Tested on: OVCAR-5 ovarian
# experimentalDetails: NCI-60 one-dose screen, 48 h (100 = growth as untreated, 0 = no growth, -100 = all killed)
# experimentalConditions: 10 µM unless noted
About 83,000 compounds went through this panel and 20% of them were active in at least one assay; those are over-represented in the sample as a whole. The source made the active and inactive calls. Rule for the calls: active = growth percent below 10; inactive = the rest.
metricName: growth

molecule	metricName	endpointValue
COc1ccc(C2c3[nH]c4ccc(Cl)cc4c3CCN2c2oc(CO)nc2C#N)cc1 (stereo not given)	growth	78.1% (inactive)
O=C(Nc1ccc(Cl)c(C(F)(F)F)c1)Nc1ccc2oc(=O)ccc2c1	growth	75.6% (inactive)
O=C(/C=C/c1ccccc1)c1cccc(O)c1	growth	101% (inactive)
O=S1SC(c2ccccc2)=NN1c1cc(F)cc(F)c1 (stereo not given)	growth	93.8% (inactive)
O=S(=O)(NCCCNc1nccc(-c2[nH]c(-c3ccccc3)nc2-c2ccc(F)c(O)c2)n1)c1cccc(F)c1	growth	147% (inactive)
COc1cc(/C=C2/C(=O)Nc3ccc(Cl)cc32)ccc1OCc1ccc(Cl)cc1	growth	96.7% (inactive)
Cc1[nH]c(C(=O)Nc2ccc(S(=O)(=O)N3CCCCC3)cc2OCCOCCOCCOCCOCCOCCOCCOCCOCCOc2cc(S(=O)(=O)N3CCCCC3)ccc2NC(=O)c2[nH]c(C)c3c2CCCCC3=O)c2c1C(=O)CCCC2	growth	48.6% (inactive)
N#Cc1nc(-c2ccc(Cl)cc2)oc1N1CCC(S(=O)(=O)N2CCOCC2)CC1	growth	102% (inactive)
CS(=O)(=O)c1ccc(/C(=N/N=C(N)N)c2ccc(Cl)cc2)cc1	growth	99.7% (inactive)
O=C(CCCCCCNC(=O)C(O)(O)C(F)(F)F)Nc1ncc(-c2ccc(Br)cc2)s1	growth	-2.49% (active)
CCc1cccc2c3c(sc12)C(c1ccc(F)cc1)C(C#N)=C(/N=C/c1ccc(Cl)cc1)O3 (stereo not given)	growth	29.1% (inactive)
CCNC(=O)Oc1ccc(/C(=C(/C)c2ccc(Cl)cc2)c2ccc(OCCN3CCCCCC3)cc2)cc1	growth	53.5% (inactive)
C#C[C@]1(O)CC[C@H]2[C@@H]3CC=C4c5sc(Nc6ccc(C)cn6)nc5CC[C@]4(C)[C@H]3CC[C@@]21C	growth	22.2% (inactive)
Cc1ccc(S(=O)(=O)c2nc(-c3ccc(F)cc3)oc2S(C)(=O)=O)cc1	growth	95.2% (inactive)
O=C(Nc1ccc(Cl)c(C(F)(F)F)c1)Nc1ccc2c(ccn2C(=O)c2cccc(F)c2)c1	growth	67.3% (inactive)
Cc1ccc([C@H]2c3[nH]c4ccccc4c3C[C@H]3C(=O)N(CCCCCCC(=O)NO)CC(=O)N23)s1	growth	52.8% (inactive)
Cc1ccccc1NC(=O)Nc1nc2ccc([N+](=O)[O-])cc2s1	growth	16.9% (inactive)
O=C1c2ccccc2C23C(=C(c4cncnc4)c4ccccc42)CCCN13 (stereo not given)	growth	96.5% (inactive)
CC(=O)OC[C@@]12Oc3c(cccc3-c3ccc(O)c4c3O[C@]3(COC(C)=O)C(=C4O)C(=O)C[C@H](C)[C@@H]3OC(C)=O)C(O)=C1C(=O)C[C@H](C)[C@@H]2OC(C)=O	growth	27.6% (inactive)
CCN(CC)CCOc1ccc(C(=C(c2ccccc2)C2CCCC2)c2ccc(OCCN(CC)CC)cc2)cc1	growth	38.5% (inactive)

====

# Test system: TK-10 renal
# experimentalDetails: NCI-60 one-dose screen, 48 h (100 = growth as untreated, 0 = no growth, -100 = all killed)
# experimentalConditions: 10 µM unless noted
The panel holds about 83,000 compounds, 20% with a hit somewhere; the sample as a whole holds those more often.
Measured growth values are reported for all entries that follow.

compound	targetSystem	growth (%)
O=C(/C=C/c1csc(Br)n1)NO	TK-10 renal	-9.31
O=C(CCCCCCN1CC(=O)N2[C@@H](c3ccccc3Br)c3[nH]c4ccccc4c3C[C@H]2C1=O)NO	TK-10 renal	28.7
O=C1/C(=C/c2cc(F)cc(F)c2)Cc2cc3c(cc21)OCO3	TK-10 renal	99.4
C=C(C)[C@@H]1CC[C@]2(COP(=O)(OCC)OCC)CC[C@]3(C)[C@H](CC[C@@H]4[C@@]5(C)CC[C@H](OP(=O)(OCC)OCC)C(C)(C)[C@@H]5CC[C@]43C)[C@@H]12	TK-10 renal	68.5
O=S(=O)(Oc1ccc(-c2cn3ccoc3n2)cc1)C1CCCCC1	TK-10 renal	105
NS(=O)(=O)c1ccc(Nc2nc(Nc3ccccc3)nc(N3N=C(c4ccc(Cl)cc4)CC3c3ccc(Cl)cc3)n2)cc1 (configuration not stated)	TK-10 renal	89.3
C(=N\Nc1nc(N/N=C/c2ccc3c(c2)OCO3)nc(N2CCCCC2)n1)/c1ccc2c(c1)OCO2	TK-10 renal	121

====

growth values, listed per item
# System: LOX IMVI melanoma
# experimentalDetails: NCI-60 one-dose screen, 48 h (100 = growth as untreated, 0 = no growth, -100 = all killed)
# experimentalConditions: 10 µM unless noted
The panel holds about 83,000 compounds, 20% with a hit somewhere; the sample as a whole holds those more often.

molecularString	growth / %
COC(=O)N1CCN(CCNCc2ccc(NC(=O)c3ccc(C)c(C#Cc4cnc5cccnn45)c3)cc2C(F)(F)F)CC1	-79.5
O=C1C(SCc2ccccc2)=C(Cl)CN1c1ccc(Cl)cc1	5.82
Cn1cc(-c2nnc(N)nc2-c2c[nH]c3ccc(Br)cc23)c2cc(Br)ccc21	101
Cn1cc(C2=C(c3coc4cc(Br)ccc34)C(=O)NC2=O)c2ccccc21	69.2

====

# Tested on: SF-295 CNS
# experimentalDetails: NCI-60 one-dose screen, 48 h
# experimentalConditions: 10 µM unless noted
Compounds without any hit were thinned out: in the full panel of roughly 83,000, 20% have a hit. Active and inactive are the calls of the source. How the source made its calls: active means growth percent below 10; inactive means the rest.
Outcomes: y for active, n for inactive

compound	classAssignment
O=C(CCl)Nc1ccc(NC(=O)c2cc(Cl)ccc2O)c(Cl)c1	n
Oc1[nH]c2ccc(Cl)cc2c1N=Nc1nc(N=Nc2c(O)[nH]c3ccc(Cl)cc23)nc(N2CCOCC2)n1	n
CN1CCN(Cc2ccc(NC(=O)c3cncc(C#Cc4cnc5ccc(N6CCOCC6)nn45)c3)cc2C(F)(F)F)CC1	y
COc1ccc(C2CC(c3cccc(OCCCCOc4cccc(C5=NOC(c6ccc(OC)cc6)C5)c4)c3)=NO2)cc1 (stereo not given)	n
CN1CCN(CCNc2nc(-c3cccc(NS(=O)(=O)c4cccc5c(N(C)C)cccc45)c3)cs2)CC1	n

====

# System: 786-0 renal
# experimentalDetails: NCI-60 one-dose screen, 48 h
# experimentalConditions: 10 µM unless noted
This is part of a sample that, as a whole, favours compounds with a hit. Of some 83,000 tested, about 20% had one in any assay. The source made the active and inactive calls. Rule for the calls: active = growth percent below 10; inactive = the rest.
Labels: Yes (active), No (inactive)

molecule	targetSystem	classAssignment
CN1CCN(c2ccc(Nc3nc(NCCNS(=O)(=O)c4ccc(Cl)cc4)c4sccc4n3)cc2)CC1	786-0 renal	No
CCCC/C(=C\c1ccc(O)c(O)c1)C(=O)NC(Cc1ccccc1)C(=O)C(=O)NCCc1ccc(OC)cc1 (configuration not stated)	786-0 renal	No
O=C(/C=C/c1ccccc1)c1cccc(O)c1	786-0 renal	No
COc1ccc(/C(=N\N=C(N)N)c2ccc(Cl)cc2)cc1OC	786-0 renal	No
CC(=C(c1ccc(OCCCN(C)C)cc1)c1ccc(OCCCN(C)C)cc1)c1ccc(Cl)cc1	786-0 renal	No
Cc1[nH]c(C(=O)Nc2ccccc2OCc2cccc(C(=O)NC3CCCNC3)c2)c(Cl)c1Cl (configuration not stated)	786-0 renal	Yes
Cc1cc(Br)ccc1-n1cc(C#N)c(N)c1C(=O)c1ccc(Br)cc1	786-0 renal	No

====

# System: ACHN renal
# experimentalDetails: NCI-60 one-dose screen, 48 h (100 = growth as untreated, 0 = no growth, -100 = all killed)
# experimentalConditions: 10 µM unless noted
The panel holds about 83,000 compounds, 20% with a hit somewhere; the sample as a whole holds those more often.
Recorded growth, one value per entry.

molecule	unitsLabel	growth
Cc1cccc(N2CCN(C3=C(Cl)C(=O)c4ncccc4C3=O)CC2)c1	%	-32.9
O=C(/C=C/c1ccc(Cl)c(Cl)c1)Nc1ncc(Cc2ccc(Cl)c(Cl)c2)s1	%	42.6
NC1C2CCC1CN(c1cnc(C(=O)Nc3cc(F)cc4cccnc34)cn1)C2 (configuration not stated)	%	28.3
CCc1cc(O)ccc1Nc1cc(-c2ccc(-n3cccn3)cc2)[nH]n1	%	43.9
CC1=C(SCC(=O)OCCCCCC(C)C)C(=O)c2ccccc2C1=O	%	85.7
CCOC(=O)C1=C(C)NC(C)=C(C(=O)OCc2ccccc2)C1c1cccc(C#N)c1 (configuration not stated)	%	47.1
O=C(/C=C/c1ccccc1)c1cccc(O)c1	%	106

====

# Test system: SF-268 CNS
# experimentalDetails: NCI-60 one-dose screen, 48 h (100 = growth as untreated, 0 = no growth, -100 = all killed)
# experimentalConditions: 10 µM unless noted
The panel holds about 83,000 compounds, 20% with a hit somewhere; the sample as a whole holds those more often.
Documented growth across a set of molecules
metricName: growth (%)

molecule	targetSystem	endpointValue
C[C@@H]1OCC2(CCN(c3cnc(C(=O)Nc4cc(F)cc5cccnc45)cn3)CC2)[C@@H]1N	SF-268 CNS	78.9
O=C(O)c1ccc(-n2c(=O)n(-c3cccc(C(F)(F)F)c3)c(=O)c3cc(-c4ccc(F)cc4F)ccc32)cc1	SF-268 CNS	22.1
CC1CCN(CC(=O)Nn2c(COc3ccccc3)nc3ccccc3c2=O)CC1	SF-268 CNS	99.4
C=CCSC1=NC2C(N(CC)C(=O)N2CC)N1/N=C/C=C/c1ccccc1OC (stereo unspecified)	SF-268 CNS	89.2
O=C(/C=C/c1cc(Cl)ccc1Cl)Nc1ncc(Cc2ccc(Cl)cc2)s1	SF-268 CNS	34.7
CCOP(=O)(OCC)OC[C@]12CC[C@@H](C)[C@H](C)C1C1=CC[C@@H]3[C@@]4(C)CCCNC(C)(C)[C@@H]4CC[C@@]3(C)[C@]1(C)CC2 (stereo partly specified)	SF-268 CNS	37.4

Every entry's value here was drawn from PubChem BioAssay (NCI).
